test system: L1210 leukemia ip in BDF1 mice, survival T/C; test: NCI In Vivo Anticancer Drug Screen. Data for tumor model L1210 Leukemia (intraperitoneal) in B6D2F1 (BDF1) mice; conditions: endpoint: mean survival time; dose: 400.0 mg/kg/injection; schedule: Q01DX001 (ip); vehicle: other; higher = longer survival
Toxic doses and inconclusive results are not listed.
# Lookup of reported T/C keyed by entry

compound	T/C
Cn1c(=O)c2[nH]c(CC3=CCCCC3)nc2n(C)c1=O	90 % of control
CNC(=O)OCCOC(=O)NC	98 % of control
O=C(c1ccccc1)C1CCCCC1	105 % of control
CC(C)OC(=O)c1ccccc1-c1ccccc1	87 % of control
C/C=C\c1ccc(OC(=O)c2ccc([N+](=O)[O-])cc2)c(OC)c1	94 % of control
O=C1c2ccccc2-c2c(N=Cc3ccc4c(c3)OCO4)c(Br)cc(Br)c21	95 % of control
Cn1nc(Br)c(=O)n(C(c2ccccc2)c2ccccc2)c1=O	154 % of control
O=C(O)C(Cc1ccc(O)cc1)N(S(=O)(=O)Cc1ccccc1)S(=O)(=O)Cc1ccccc1 (stereo not given)	108 % of control
CC1CCC(Oc2nc3c(c(=O)n(C)c(=O)n3C)n2C)CC1 (stereo not given)	95 % of control
O=[N+]([O-])c1ccc(/C=N\N=C\c2ccc([N+](=O)[O-])cc2)cc1	104 % of control

* * *

# Lookup of reported T/C keyed by entry
System: L1210 leukemia ip in BDF1 mice, survival T/C
Assay: NCI In Vivo Anticancer Drug Screen. Data for tumor model L1210 Leukemia (intraperitoneal) in B6D2F1 (BDF1) mice
Settings: endpoint: mean survival time; dose: 100.0 mg/kg/injection; schedule: Q01DX009 (ip); vehicle: Klucel (hydroxypropylcellulose) (HPC); higher = longer survival
Description: The antitumor activity of compounds was measured in mice bearing transplantable tumors. Survival or tumor size were measured and the results are expressed as the measurement made in the treated group (T) divided by the measurement made in the vehicle treated control group (C). The tumor model used in this assay is L1210 Leukemia (intraperitoneal) in B6D2F1 (BDF1) mice
Inconclusive results and toxic doses are left out.
observable: T/C

molecule	measuredValue
Cc1[nH]c(=O)[nH]c(=O)c1[N+](=O)[O-]	94 % of control
ClCCCC#Cc1ccccc1	101 % of control
O=C(O)CCCCSc1ncnc2nc[nH]c12	113 % of control
Brc1csc2ncccc12	101 % of control
NS(=O)(=O)c1ccc(S(=O)(=O)NC2CCCCC2)cc1	101 % of control
O=c1[nH][nH]c(=O)c2[nH]cnc12	107 % of control
COc1cc2ccc(C(C)NCC#N)cc2cc1OC (configuration not stated)	97 % of control
CC(=O)c1cccc(NC(=O)Oc2ccc(-c3ccccc3)cc2Cl)c1	98 % of control
Cc1cc(OC(=O)Nc2cccc([N+](=O)[O-])c2)cc(C)c1Cl	100 % of control
C/C(CC(C)(C)c1ccccc1)=N/NC(N)=O	104 % of control
COc1ccc(S(=O)(=O)NC(=O)NC23CC4CC(CC(C4)C2)C3)cc1	98 % of control
O=c1oc(-c2ccccc2)n[n+]([O-])c1-c1ccccc1	98 % of control
Nc1cccc2c1C(=O)c1cccc(NC(=O)c3ccccc3)c1C2=O	95 % of control
CCN(CC)CCNc1cccc2sc3ccccc3c(=O)c12	94 % of control
CCOC(=O)Nc1cc(Cl)ccc1OC	107 % of control
CCCCCCCCOc1ccc(C=Nc2ccc(C)cc2)cc1	98 % of control
CCCCCCCCCCCCCCCCOc1ccc(S(=O)(=O)Nc2cc(C(=O)OC)cc(C(=O)OC)c2)cc1[N+](=O)[O-]	98 % of control
CCCCCCCCCCCCNC(=O)Nc1ccc(C)cc1C	98 % of control
O=C(O)c1c(Br)c(Br)c(Br)c(Br)c1C(=O)Nc1ccc(Cl)cc1C(F)(F)F	101 % of control
CC(=Nc1cc(C)c(C)cc1C)c1c(O)cc(C)oc1=O	93 % of control
COC(=O)N/N=C/c1cccnc1	103 % of control
C=C(C)C1Cc2c(ccc3c(=O)c4c(oc23)COc2cc(OC)c(OC)cc2-4)O1 (configuration not stated)	90 % of control
